Reference source: the NIST ThermoML archive (doi:10.1021/acs.jced.6b00269)

- Assay Conditions: 353.15 K; 101.33 kPa; Liquid; Vibrating tube method
Please respond with reported mass density for every item in the list.
One number for each entry, in kg/m3.

Observe how each entry below is paired with its result.
| Compound | mass density [kg/m3] |
| --- | --- |
| CCCCCCn1cc[n+](C)c1.N#Cc1ccc[n-]1 [1-hexyl-3-methylimidazolium 2-cyanopyrrolide] | 989.1 |
| CC(=O)[O-].CCCCCCn1cc[n+](C)c1 [3-hexyl-1-methylimidazolium acetate] | 983.7 |

Here is another compound to look at.
Problem: # query: mass density of entry CCCCCCCCSC(N(C)C)=[N+](C)C.O=S(=O)([N-]S(=O)(=O)C(F)(F)F)C(F)(F)F
Result: 1250.4

====

- Assay Conditions: 303.15 K; 101.33 kPa; Liquid; Vibrating tube method
± gives the expanded uncertainty stated by the source.
Please respond with reported mass density for every item in the list.
Number plus unit, in that order.

Observe how each entry below is paired with its result.
| Compound | mass density |
| --- | --- |
| CCCCCCCCCCCCCC[P+](CCCCCC)(CCCCCC)CCCCCC.O=[N+]([O-])c1cn[n-]c1 [trihexyl(tetradecyl)phosphonium 4-nitropyrazolide] | 936.4 ± 4.8 kg/m3 |
| CC(=O)[O-].CCCCCCCCCCCCCC[P+](CCCCCC)(CCCCCC)CCCCCC [trihexyl(tetradecyl)phosphonium acetate] | 882.8 ± 4.4 kg/m3 |

Hi, could you look up mass density for each item in my list?
1. CCCCCCCCC[P+](CC)(CC)CC.O=[N+]([O-])c1cn[n-]c1 [triethylnonylphosphonium 4-nitropyrazolide]
2. CC[P+](CC)(CC)COCCOC.O=[N+]([O-])c1cn[n-]c1
3. CCCC[S+]1CCCC1.O=S(=O)([N-]S(=O)(=O)C(F)(F)F)C(F)(F)F
4. CCCCCCn1cc[n+](C)c1.N#Cc1ccc[n-]1 [1-hexyl-3-methylimidazolium 2-cyanopyrrolide]
5. CC[P+](CC)(CC)COCCOC.O=S(=O)([N-]S(=O)(=O)C(F)(F)F)C(F)(F)F

Result:
["1018.8 ± 5.6 kg/m3", "1135.6 ± 7 kg/m3", "1450.4 ± 12 kg/m3", "1018.8 ± 5.6 kg/m3", "1355.7 ± 10 kg/m3"]

====

Please respond with reported mass density for every item in the list.
- Assay Conditions: 288.15 K; 101.33 kPa; Liquid; Vibrating tube method
Numbers only, in kg/m3.

Observe how each entry below is paired with its result.
| Molecule | Measured Parameter | Observed Measurement |
| --- | --- | --- |
| CC[P+](CC)(CC)COCCOC.O=[N+]([O-])c1cn[n-]c1 | mass density | 1145.8 |
| CCC[n+]1ccn(C)c1C.O=[N+]([O-])c1cn[n-]c1 [1,2-dimethyl-3-propylimidazolium 4-nitropyrazolide] | mass density | 1189.4 |
| CCCCCCSC(N(C)C)=[N+](C)C.O=S(=O)([N-]S(=O)(=O)C(F)(F)F)C(F)(F)F | mass density | 1347.8 |
| CCCCCCn1cc[n+](C)c1C.O=[N+]([O-])c1cn[n-]c1 [1-hexyl-2,3-dimethylimidazolium 4-nitropyrazolide] | mass density | 1126 |

Hi, could you look up mass density for each item in my list?
1. CC(=O)[O-].CCCCCCn1cc[n+](C)c1 [3-hexyl-1-methylimidazolium acetate]
2. CCCCCCCC[P+](CC)(CC)CC.O=[N+]([O-])c1cn[n-]c1 [triethyloctylphosphonium 4-nitropyrazolide]

Result:
1022.7
1037
